- Measured target: T1, human Trop-2 expressed on cell surface (human, UniProt P09758 27-323)
- T1 sequence (looked up): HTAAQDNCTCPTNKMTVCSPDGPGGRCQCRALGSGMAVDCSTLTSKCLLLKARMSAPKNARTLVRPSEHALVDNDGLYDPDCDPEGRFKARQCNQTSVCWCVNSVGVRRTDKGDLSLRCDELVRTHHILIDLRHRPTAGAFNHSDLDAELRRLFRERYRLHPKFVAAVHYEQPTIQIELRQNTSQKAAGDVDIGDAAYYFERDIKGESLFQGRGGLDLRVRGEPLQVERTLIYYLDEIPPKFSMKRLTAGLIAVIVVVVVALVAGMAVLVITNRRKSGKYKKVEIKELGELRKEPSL
- Assay details: cell-based or functional assay
So basically: Internalization %, MCF-7, 0.5 µg/ml, 4 h at 50% or higher? That is label 1. Lower than 50%? That is label 0.

Binder	Answer label
65D5 (antibody, V domains shown, Rabbit-derived clone; LEM construct: VH + rabbit IgG CH1 + human IgG1 CH2-CH3) VH: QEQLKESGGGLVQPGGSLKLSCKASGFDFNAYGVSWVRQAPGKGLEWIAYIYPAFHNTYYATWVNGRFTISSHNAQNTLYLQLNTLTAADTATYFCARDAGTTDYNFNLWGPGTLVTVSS VL: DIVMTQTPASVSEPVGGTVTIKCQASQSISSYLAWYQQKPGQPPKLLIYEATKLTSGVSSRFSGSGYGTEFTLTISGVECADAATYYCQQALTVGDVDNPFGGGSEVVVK	label 0
9D7 (antibody, V domains shown, Rabbit-derived clone; LEM construct: VH + rabbit IgG CH1 + human IgG1 CH2-CH3) VH: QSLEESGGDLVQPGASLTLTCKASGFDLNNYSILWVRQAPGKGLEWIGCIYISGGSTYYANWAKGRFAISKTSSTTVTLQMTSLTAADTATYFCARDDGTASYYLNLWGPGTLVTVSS VL: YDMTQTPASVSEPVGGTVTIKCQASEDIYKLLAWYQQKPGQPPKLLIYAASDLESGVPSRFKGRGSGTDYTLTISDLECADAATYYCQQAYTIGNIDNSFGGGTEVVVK	label 1
66A1 (antibody, V domains shown, Rabbit-derived clone; LEM construct: VH + rabbit IgG CH1 + human IgG1 CH2-CH3) VH: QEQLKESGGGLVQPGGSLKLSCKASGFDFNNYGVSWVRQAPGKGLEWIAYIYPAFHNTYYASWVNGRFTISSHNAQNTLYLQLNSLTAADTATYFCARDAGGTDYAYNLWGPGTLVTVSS VL: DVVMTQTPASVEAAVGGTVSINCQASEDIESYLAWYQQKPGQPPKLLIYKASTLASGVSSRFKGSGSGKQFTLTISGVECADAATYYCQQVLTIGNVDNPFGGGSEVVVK	label 1
10A9-2 (antibody, V domains shown) VH: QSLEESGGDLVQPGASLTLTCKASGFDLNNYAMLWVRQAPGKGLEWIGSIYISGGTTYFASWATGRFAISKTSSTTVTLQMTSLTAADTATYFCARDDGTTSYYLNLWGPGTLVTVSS VL: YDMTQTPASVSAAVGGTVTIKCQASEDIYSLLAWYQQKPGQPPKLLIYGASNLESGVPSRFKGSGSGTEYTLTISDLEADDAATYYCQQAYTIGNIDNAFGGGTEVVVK	label 1
72F12 (antibody, V domains shown, Rabbit-derived clone; LEM construct: VH + rabbit IgG CH1 + human IgG1 CH2-CH3) VH: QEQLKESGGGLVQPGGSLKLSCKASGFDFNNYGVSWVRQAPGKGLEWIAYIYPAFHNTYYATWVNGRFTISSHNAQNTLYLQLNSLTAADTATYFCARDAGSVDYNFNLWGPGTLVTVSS VL: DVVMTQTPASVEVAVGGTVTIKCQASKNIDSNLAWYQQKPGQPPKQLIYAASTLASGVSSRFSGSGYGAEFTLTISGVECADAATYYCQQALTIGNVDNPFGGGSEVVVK	label 0
5D4 (antibody, V domains shown, Rabbit-derived clone; LEM construct: VH + rabbit IgG CH1 + human IgG1 CH2-CH3) VH: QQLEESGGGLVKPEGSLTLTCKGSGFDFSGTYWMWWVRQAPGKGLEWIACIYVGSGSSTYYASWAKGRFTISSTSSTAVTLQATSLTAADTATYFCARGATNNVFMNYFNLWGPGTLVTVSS VL: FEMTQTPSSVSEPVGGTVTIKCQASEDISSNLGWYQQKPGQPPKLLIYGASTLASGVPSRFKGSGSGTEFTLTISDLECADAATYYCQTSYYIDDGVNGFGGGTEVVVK	label 1
